Assay Target: T1, proprotein convertase subtilisin/kexin type 9 (PCSK9) (human, UniProt Q8NBP7 31-152)
T1 construct: domain: prodomain; Recombinant; tag not written as a part; also called rec.PCSK9; His-PCSK9
T1 sequence (Q8NBP7 31-152 limits assumed, chain 1 of 2): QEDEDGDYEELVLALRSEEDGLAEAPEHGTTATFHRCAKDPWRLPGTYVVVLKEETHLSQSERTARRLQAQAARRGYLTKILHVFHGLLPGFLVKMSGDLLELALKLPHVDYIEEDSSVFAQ
T1 sequence (Q8NBP7 153-692 limits assumed, chain 2 of 2): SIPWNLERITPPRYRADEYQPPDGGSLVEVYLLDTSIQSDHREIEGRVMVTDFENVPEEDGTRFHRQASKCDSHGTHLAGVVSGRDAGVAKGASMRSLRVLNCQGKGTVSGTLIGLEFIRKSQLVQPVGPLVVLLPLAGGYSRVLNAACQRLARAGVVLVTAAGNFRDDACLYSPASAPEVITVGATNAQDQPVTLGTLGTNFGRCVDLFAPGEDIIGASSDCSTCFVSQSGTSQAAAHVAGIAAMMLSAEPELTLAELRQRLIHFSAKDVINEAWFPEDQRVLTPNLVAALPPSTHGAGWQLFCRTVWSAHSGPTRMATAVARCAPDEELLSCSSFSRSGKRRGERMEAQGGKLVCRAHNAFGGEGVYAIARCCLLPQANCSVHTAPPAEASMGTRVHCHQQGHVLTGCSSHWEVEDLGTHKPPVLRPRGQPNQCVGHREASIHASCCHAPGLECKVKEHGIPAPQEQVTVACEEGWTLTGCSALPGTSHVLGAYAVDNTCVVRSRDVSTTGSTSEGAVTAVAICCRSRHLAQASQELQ
Assay Details: phage spot ELISA
Reported Metric: binding result

> print(dat)
                                     binder  result
1  TAFTSWEEYLDWVGSGCCSYGYEKCCNG [SEQ ID NO 349]   binds
2  TAFTSWEEYLDWVGSGPRTYLRGLVD (phage clone) [SEQ ID NO 340]   binds
3  SGHASKGMVLSG (phage clone without anchor) [SEQ ID NO 381]   binds
4  TAFTSWEEYLDWVGSGGREMRSVIQM (phage clone) [SEQ ID NO 344]   binds
